# system: human TREM2 extracellular domain (ECD) (Homo sapiens, UniProt Q9NZC2)
# Sequence (Q9NZC2 19-174): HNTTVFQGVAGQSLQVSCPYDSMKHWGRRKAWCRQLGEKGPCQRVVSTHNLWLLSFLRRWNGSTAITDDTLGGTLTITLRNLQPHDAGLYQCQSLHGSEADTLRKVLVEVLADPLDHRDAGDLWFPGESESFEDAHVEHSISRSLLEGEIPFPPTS
property measured: binding result

[
  {
    "binder": "R18-13-31 (antibody, V domains shown) VH: AVQLVESGGGLVQPIESLKISCAASGFTFTNAAMYWVRQAPGKGLEWIARIRTKPNDYATYYADSVKGRFTISRDDSESVVYLQMDNLKTEDTATYYCTAAWDYYSSAFDYWGQGVMVTVSS VL: DIVMTQSPSSLAVSAGETVTIDCKSSQSLLYSGNQKTYLAWYQQKPGQSPKLLIYWASTRQSGVPDRFIGSGSGTDFTLTISSVQAEDLAIYYCQQYYDTPLTFGSGTKLEIK",
    "obs value": "binds"
  },
  {
    "binder": "3.21B10 (antibody, V domains shown) VH: AVQLIESGGGLVQPKGSLKISCAASGFTFSDAAMFWVRQAPGKGLEWIARIRTKPNNYATYYADSVRGRFTISRDDSKSMVYLQMDNLKTDDTAMYYCIEGVNYGGSPFVYWGQGTLVTVSS VL: DIVMTQSPSSLAVSAGETVTINCKSSQSLLYSGNQKSYLAWYQQKPGQSPKLLIYWASTRQSGVPDRFIGSVSGTDFTLTISSVQAEDLAIYYCQQYYDIPLTFGSGTKVEIK",
    "obs value": "binds"
  },
  {
    "binder": "R19-11-40 (antibody, V domains shown) VH: AVQLVESGGGLVQPKESLKISCAASGFTFSNAAMFWVRQAPGEGLEWVARIRTKPNSYATYYADSVKGRFTISRDDSKSMVYLQMDNLKTEDTAMYYCTADYPGMGFDSWGQGVMVTVSS VL: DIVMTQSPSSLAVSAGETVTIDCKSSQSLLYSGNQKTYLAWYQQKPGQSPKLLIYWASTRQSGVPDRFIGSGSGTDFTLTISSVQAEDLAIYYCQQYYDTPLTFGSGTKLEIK",
    "obs value": "binds"
  }
]
